Assay: chemical genetic growth profiling, strain panel (AID 1159580);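 further: tested at 20 µM; growth read once vehicle control cultures reached saturation at 30 °C; 1 = growth at the plate median or of vehicle wells; lower values mean less growth of the strain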
Details: S. cerevisiae deletion strains, growth OD, locus YER111C, strain swi4, stronger effect = lower value
The whole screen tested about 5,500 compounds, of which about 2,000 (36%) were called active. Another 18% or so got no clear call; they are omitted. The list shows a part of the results.
normalized growth values, listed per item

Recorded normalized growth, per entry:
O=c1cc(-c2ccc(O)cc2)oc2cc(O)ccc12
0.961 (inactive)
NC(N)=O
1.01 (inactive)
C[C@]12C=CC(=O)C=C1CCC1C3C[C@@H](O)[C@](O)(C(=O)CO)[C@@]3(C)C[C@H](O)[C@@]12F (stereo partly specified)
0.975 (inactive)
CCCC(C(=O)OCCN(CC)CC)(c1ccccc1)c1ccccc1
1 (inactive)
COc1c(Cl)ccc(Cl)c1C(=O)O
0.96 (inactive)

Q) Report normalized growth for O=c1cc(-c2cc(O)c(O)c(O)c2)oc2cc(O)cc(O)c12 please.
A) 0.965 (inactive)

Q) Please answer likewise for N[C@@H]1[C@@H](O)[C@H](O)[C@@H](CO)O[C@H]1O
A) 1.03 (inactive)

Q) Please answer likewise for CC(=O)OCC(=O)[C@@]1(O)[C@H](OC(C)=O)CC2C3CCC4=CC(=O)C=C[C@]4(C)[C@@]3(F)[C@@H](O)C[C@@]21C (stereo partly specified)
A) 0.976 (inactive)

Q) Please answer likewise for O=c1cc(-c2ccccc2)oc2cc(O)c(O)cc12
A) 0.951 (inactive)

Q) Please answer likewise for O=c1cc(-c2ccc(O)cc2)oc2cc(O)cc(O)c12
A) 0.989 (inactive)

Q) Please answer likewise for Nc1cc(-c2ccncc2)c[nH]c1=O
A) 0.979 (inactive)

====

normalized growth values, listed per item
Experiment: chemical genetic growth profiling, strain panel (AID 1159580)
Conditions: S. cerevisiae deletion strains, growth OD, locus YAL030W, strain snc1, stronger effect = lower value
Out of some 5,500 compounds screened, about 2,000 (36%) were called active. Inconclusive results (about 18%) are left out. The list shows a part of the results.
Format: numeric value only, no unit, no commentary.

CC(=O)Nc1ccccc1
0.972
O=[N+]([O-])c1cccc2cn[nH]c12
1
CCOC(=O)[C@H](CCc1ccccc1)N[C@@H](C)C(=O)N1Cc2ccccc2C[C@H]1C(=O)O
1
COc1cc([C@H]2Oc3cc([C@H]4Oc5cc(O)cc(O)c5C(=O)[C@@H]4O)ccc3O[C@@H]2CO)ccc1O
1.01

Q) Report normalized growth for CC(=O)Nc1nnc(S(N)(=O)=O)s1 please.
A) 1.02

Q) Please answer likewise for N[C@@H]1[C@@H](O)[C@H](O)[C@@H](CO)O[C@H]1O
A) 1.02

Q) Please answer likewise for O=[N+]([O-])c1cccc2c(Br)[nH]nc12
A) 0.984

Q) Please answer likewise for OC[C@H]1OC([S-])[C@H](O)[C@@H](O)[C@@H]1O.[Au+] (stereo partly drawn)
A) 1.03

====

normalized growth values, listed per item
Assay: chemical genetic growth profiling, strain panel (AID 1159580)
Details: S. cerevisiae deletion strains, growth OD, locus YJL168C, strain set2, stronger effect = lower value
The whole screen tested about 5,500 compounds, of which about 2,000 (36%) were called active. About 18% were inconclusive and are not listed. This is one part of the list.

CC(CN1c2ccccc2Sc2cccnc21)N(C)C (configuration not stated)
0.998 (inactive)
CNCCCN1c2ccccc2CCc2ccccc21
1 (inactive)
CC(=O)OCC(=O)[C@@]1(O)[C@H](OC(C)=O)CC2C3CCC4=CC(=O)C=C[C@]4(C)[C@@]3(F)[C@@H](O)C[C@@]21C (some centres not stated)
0.999 (inactive)
N[C@@H](Cc1cc(I)c(Oc2cc(I)c(O)c(I)c2)c(I)c1)C(=O)O
1.1 [resistant] (active)
COc1cc([C@H]2Oc3cc([C@H]4Oc5cc(O)cc(O)c5C(=O)[C@@H]4O)ccc3O[C@@H]2CO)ccc1O
0.98 (inactive)
CC(=O)O[C@H]1CC[C@]2(C)C3=CC(=O)[C@@]4(C)C(C[C@@H]5OC6(OCC(C)CC6Br)[C@@H](C)[C@@H]54)C3CC[C@H]2C1 (some centres not stated)
0.994 (inactive)

Q) Report normalized growth for NC(Cc1ccc(F)cc1)C(=O)O (configuration not stated) please.
A) 1.01 (inactive)

Q) Please answer likewise for O=c1cc(-c2ccccc2)oc2cc(O)c(O)c(O)c12
A) 0.808 (active)

Q) Please answer likewise for CC1CCC2(OC1)OC1CC3C4CCC5C[C@@H](O)CCC5(C)C4=CCC3(C)C1[C@@H]2C (some centres not stated)
A) 0.984 (inactive)

====

normalized growth values, listed per item
Assay: chemical genetic growth profiling, strain panel (AID 1159580)
Details: S. cerevisiae deletion strains, growth OD, locus YDL005C, strain med2, stronger effect = lower value
Hit rate of the full screen: of about 5,500 compounds, about 2,000 (36%) were called active. Roughly 18% stayed inconclusive and do not appear here. The list shows a part of the results.
Format: numeric value only, no unit, no commentary.

Recorded normalized growth, per entry:
COc1cc([C@@H]2c3cc4c(cc3[C@H](OC(C)=O)[C@H]3COC(=O)[C@@H]23)OCO4)cc(OC)c1OC
1
Nc1cc(-c2ccncc2)c[nH]c1=O
0.971
Nc1ccncc1
0.991
CC(=O)N=c1sc(S(N)(=O)=O)nn1C
1.01
O=C(O)CCCOc1ccc(Cl)cc1Cl
0.946
CC(=O)Nc1nnc(S(N)(=O)=O)s1
0.997

Q) Report normalized growth for CN(C)CCOC(=O)C(c1ccccc1)C1(O)CCCC1 (stereo not given) please.
A) 0.991

Q) Please answer likewise for COc1cc([C@H]2Oc3cc([C@H]4Oc5cc(O)cc(O)c5C(=O)[C@@H]4O)ccc3O[C@@H]2CO)ccc1O
A) 1.01

Q) Please answer likewise for C=C[C@H]1CN2CC[C@H]1C[C@@H]2[C@H](O)c1ccnc2ccccc12
A) 0.975

Q) Please answer likewise for COC(=O)CCCOc1ccc(Cl)cc1Cl
A) 0.958

====

Assay: chemical genetic growth profiling, strain panel (AID 1159580);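 further: tested at 20 µM; growth read once vehicle control cultures reached saturation at 30 °C; 1 = growth at the plate median or of vehicle wells; lower values mean less growth of the strain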
Settings: S. cerevisiae deletion strains, growth OD, locus YBL061C, strain skt5
About 2,000 (36%) of roughly 5,500 compounds were called active. Another 18% or so got no clear call; they are omitted. Cut-off read from the data, not from the text of the source: active = normalized growth mostly below about 0.91 (no sharp cut-off); inconclusive = no clear call, values can overlap the other calls; inactive = mostly above about 0.92. The list shows a part of the results.
Choose the fitting class; nothing outside Yes (active), No (inactive) is accepted.

C=Cc1c(C)c2[n-]c1=Cc1[n-]c(c(CC)c1C)C=c1[n-]c3c(c1C)C(=O)C(C(=O)[O-])C=3c1[n-]c(c(C)c1CCC(=O)[O-])C=2.[Cu] (centres undefined)
No
CO[C@]12C[C@@H](COC(=O)c3cncc(Br)c3)CN(C)[C@@H]1Cc1cn(C)c3cccc2c13
No

Next up:
Q) Just curious, what result did CNC(=O)Oc1ccc2c(c1)[C@]1(C)CCN(C)[C@@H]1N2C get here?
A) No

====

Assay: chemical genetic growth profiling, strain panel (AID 1159580);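 further: tested at 20 µM; growth read once vehicle control cultures reached saturation at 30 °C; 1 = growth at the plate median or of vehicle wells; lower values mean less growth of the strain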
Settings: S. cerevisiae deletion strains, growth OD, locus YHR087W, strain rtc3
In all, about 5,500 compounds went through this assay and about 2,000 (36%) were called active. About 18% were inconclusive and are not listed. Cut-off read from the data, not from the text of the source: active = normalized growth mostly below about 0.91 (no sharp cut-off); inconclusive = no clear call, values can overlap the other calls; inactive = mostly above about 0.92. This is one part of the list.
Choose the fitting class; nothing outside active, inactive is accepted.

Q) Just curious, what result did Cc1ccc(OCc2nnc(SCC(=O)Nc3cccc4c3OCO4)n2-c2ccccc2)c2c1CCC2 get here?
A) inactive

Q) Please answer likewise for CC(=O)Nc1ccc(C(F)(F)F)cc1Br
A) inactive

Q) Please answer likewise for Cc1c(S(=O)(=O)c2ccc(Cl)cc2)csc1C(=O)Nc1ccc(N2CCOCC2)c(Cl)c1
A) inactive

Q) Please answer likewise for N#Cc1csc([N+](=O)[O-])c1
A) inactive

Q) Please answer likewise for O=C(O)Cc1ccccc1I
A) inactive

Q) Please answer likewise for Cc1cscc1S(=O)(=O)c1ccc(Cl)cc1
A) inactive

Q) Please answer likewise for N#Cc1cccc(Cn2c(=O)oc3ccccc32)c1
A) inactive

Q) Please answer likewise for Cc1nn(Cc2n[nH]c(=S)o2)c(C)c1Br
A) inactive

Q) Please answer likewise for Cc1onc(-c2ccccc2)c1-c1nc(CSc2ccc(C(F)(F)F)cn2)no1
A) inactive

Q) Please answer likewise for Cc1cc(NS(=O)(=O)c2ccc(NS(=O)(=O)c3cc(C)c(Cl)cc3C)cc2)no1
A) inactive

Q) Please answer likewise for Clc1ccc(OCCOc2ccc(Cl)cc2)cc1
A) inactive

Q) Please answer likewise for COc1ccc(OCC(N)=O)cc1
A) inactive

Q) Please answer likewise for O=C(O)CCOc1ccc(Cl)cc1
A) active

Q) Please answer likewise for COc1ccc2c(c1)CCCN2C(=O)NC(=O)c1c(F)cccc1Cl
A) inactive

====

Test: chemical genetic growth profiling, strain panel (AID 1159580);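 further: tested at 20 µM; growth read once vehicle control cultures reached saturation at 30 °C; 1 = growth at the plate median or of vehicle wells; lower values mean less growth of the strain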
Conditions: S. cerevisiae deletion strains, growth OD, locus YCL069W, strain vba3
About 2,000 (36%) of roughly 5,500 compounds were called active. Roughly 18% stayed inconclusive and do not appear here. Rule as the data show it: active = normalized growth mostly below about 0.91 (no sharp cut-off); inconclusive = no clear call, values can overlap the other calls; inactive = mostly above about 0.92. The list shows a part of the results.
Choose the fitting class; nothing outside active, inactive is accepted.

Q) Just curious, what result did CC12CC3CC(C)(C1)CC(N)(C3)C2 get here?
A) inactive
